# protocol_notes: Hue (H) in the Munsell color system of the crystals (Test Example 6)
# Format: physicochemical
# conditions: reflection method, crystals as obtained, hydrate
Form field: Hue (H) (one value per entry).

>  <compound>
NC(=O)c1nc[nH]c1O [Example 14, hydrate]

>  <unit_annotation>
Y

>  <Hue (H)>
5.9

$$$$
>  <compound>
NC(=O)c1nc[nH]c1O [Example 12, hydrate]

>  <unit_annotation>
Y

>  <Hue (H)>
4.4

$$$$
>  <compound>
NC(=O)c1nc[nH]c1O [Example 11, hydrate]

>  <unit_annotation>
Y

>  <Hue (H)>
3.8

$$$$
>  <compound>
NC(=O)c1nc[nH]c1O [Example 9, hydrate]

>  <unit_annotation>
Y

>  <Hue (H)>
3.1

$$$$
>  <compound>
NC(=O)c1nc[nH]c1O [Example 13, hydrate]

>  <unit_annotation>
Y

>  <Hue (H)>
5.9

$$$$
